All values here come from patent US20060287316A1.

Assay: Pharmacokinetics of PL-100 and PL-461 in rats
Format: in vivo, Sprague Dawley rats (Rattus norvegicus)
Settings: Sprague Dawley, rat, plasma, iv; 5 mg/kg i.v., female rats
READOUT KIND: AUC(0-t) (ng·h/mL)
Reply with just the number (in ng·h/mL).

Look up AUC(0-t) for this compound: COC(=O)N[C@H](C(=O)NCCCC[C@@H](CO)N(CC(C)C)S(=O)(=O)c1ccc(N)cc1)C(c1ccccc1)c1ccccc1 [PL-100] 1370

----------
Assay: Plasma concentration after single oral dose in rats (in vivo cleavage of the phosphate group)
Design: species or system male Sprague-Dawley rats
Conditions: male, Sprague-Dawley, rat, plasma; 50 mg/Kg po, vehicle Mix, 3 rats
READOUT KIND: Cmax (µM)
Give the number; µM is assumed, so skip it.

GET /values?readout=Cmax&item= "COC(=O)N[C@H](C(=O)NCCCC[C@@H](CO)N(CC(C)C)S(=O)(=O)c1ccc(N)c(F)c1)C(c1ccccc1)c1ccccc1" 0.681
